test system: NCI/ADR-RES; experiment: NCI tumour cell line growth inhibition, 48 h
The source made the active and inactive calls. No stated cut-off is given here; in the data, active = GI50 up to about 1.1 µM and inactive = higher.
Classes used: active, inactive

>>> group_label("CC1=C(C)Cc2c(O)ccc(O)c2C1")
"inactive"
>>> group_label("Cn1nc(/C=C\\C(=O)N2CC(CCl)c3c2cc(N)c2ccccc32)cc1/C=C/C(=O)N1CC(CCl)c2c1cc(N)c1ccccc21 (centres undefined)")
"active"
>>> group_label("O=C1C=C2CC[C@H]3[C@@H]4CC[C@H](Oc5c6ccccc6nc6ccccc56)[C@H]4CC[C@@H]3[C@H]2CC1")
"inactive"
>>> group_label("CC(C)(C)OC(=O)CN1C(=O)CC1CC(=O)c1ccccc1 (centres undefined)")
"inactive"
>>> group_label("CCOC(=O)c1c(CN2CCOCC2)n(Cc2ccccc2)c2c1cc(O)c1nc(C)c(C)nc12")
"inactive"
>>> group_label("CCOC(=O)c1c(C)n(-c2ccc(C)cc2)c2c1cc(O)c1[nH]c3c(c12)CCCC3")
"inactive"
>>> group_label("COC(=O)C1CCC(=O)N1CN(C(C)=O)c1ccccc1Cl (centres undefined)")
"inactive"
>>> group_label("CCOCCOC(=O)C1CCC(=O)N1CN(C(C)=O)c1cc(OC)ccc1OC (centres undefined)")
"inactive"
>>> group_label("CCCCCCCCCCCC(=O)N(CCCCCCCCCCC(=O)O)CC(O)C(O)C(OC1OC(CO)C(O)C(O)C1O)C(O)CO (centres undefined)")
"inactive"

###

test system: KM12; assay: NCI tumour cell line growth inhibition, 48 h
The source made the active and inactive calls. No stated cut-off is given here; in the data, active = GI50 up to about 1.1 µM and inactive = higher.
Metric Name: GI50

>>> measured_result("CC(C)C(=O)NCC[C@@H](CNC(=O)OC(C)(C)C)NC(=O)OC(C)(C)C")
"> 100 µM (inactive)"
>>> measured_result("CC12N=NNC1C(=O)NC2=O (stereo not given)")
"> 100 µM (inactive)"
>>> measured_result("O=S(=O)(Nc1ccccc1S(=O)(=O)c1ccccc1)c1ccccc1")
"56.8 µM (inactive)"
>>> measured_result("C#CCn1ncc2c(SCc3ccccc3)ncnc21")
"> 100 µM (inactive)"
>>> measured_result("CC(C)(C)OC(=O)C#CC[C@H]1CCCC1/C=C/C(O)=C1/C(=O)NC(CCCNC(=O)OC(C)(C)C)C1=O (stereo not given in full)")
"41.6 µM (inactive)"
>>> measured_result("CCCCc1ccc(-n2sc3ncc([N+](=O)[O-])cc3c2=O)cc1")
"12 µM (inactive)"
>>> measured_result("C=C1C[C@@H](O)[C@@H](Br)C(C)(C)[C@@]12C=CC(O)(CBr)CC2 (stereo not given in full)")
"1.6 µM (inactive)"
>>> measured_result("C[C@@]12C[C@@H](c3ccccc3O1)N1CCCCSC1=N2")
"> 100 µM (inactive)"
>>> measured_result("CN(C(=O)c1ccc(Cl)cc1)C(=S)N1CCN(c2ccccc2)CC1")
"53.2 µM (inactive)"
>>> measured_result("Nc1nc2[nH]cnc2c(=O)[nH]1")
"> 100 µM (inactive)"

###

system: SW-620; test: NCI tumour cell line growth inhibition, 48 h
Activity calls are given as the source filed them. Rule as the data show it: active = GI50 up to about 1.1 µM and inactive = higher. Positions of bridges follow the written chain, without caps; N, C: chain ends. Non-standard residues stand in square brackets, D forms with d. Residues, ends and D or L forms follow the SMILES beside them. *: point of attachment. PhAc = O=C(Cc1ccccc1)*
Recorded GI50, one value per entry.
Metric Name: GI50

>>> measured_result("O=C(Cc1ccccc1)N[C@@H]1COC(=O)[C@@H]2CCCN2C(=O)[C@@H]2CCCN2C1=O (PhAc-[dS]-Pro-Pro; ester 1-C)")
"> 100 µM (inactive)"
>>> measured_result("O=C(O)/C=C\\C(=O)Nc1ccc2c(c1)-c1ccccc1C2")
"> 100 µM (inactive)"
>>> measured_result("O=C1C(/C=C/c2ccc(Cl)cc2)=NNC2N1N=C1NC(=O)C3(NN12)c1ccccc1-c1ccccc13 (stereo not drawn)")
"> 100 µM (inactive)"

###

test system: SF-268; experiment: NCI tumour cell line growth inhibition, 48 h
The source made the active and inactive calls. Rule as the data show it: active = GI50 up to about 1.1 µM and inactive = higher.
Classes used: yes = active, no = inactive

>>> group_label("O=C(CC1Sc2ccccc2NC1=O)Nc1cccc(Cl)c1 (stereo not given)")
"no"
>>> group_label("C=CC(Cl)(CBr)CCC(Br)=C(C)C (stereo not given)")
"no"
>>> group_label("CCOC(=O)c1c(C)n(-c2ccc(C)cc2)c2c1cc(O)c1[nH]c3c(c12)CCCC3")
"no"
>>> group_label("O=C(O)C[S+]([O-])c1ccc2c3c(cccc13)C(=O)c1ccccc1-2 (stereo not given)")
"no"
>>> group_label("CCN(CC)C(=S)SC [METHYLDIETHYL CARBAMODITHIOATE]")
"no"
>>> group_label("Oc1ccc2c(c1)-c1c(c3ccccc3n1CCN1CCOCC1)CC2")
"no"
>>> group_label("CCOC(=O)c1[nH]cc(C)c1-c1c[nH]c2ccccc12")
"no"
>>> group_label("CC(=O)c1cccn1/C=C(\\OC(=O)OC(C)(C)C)c1ccc[nH]1")
"no"
>>> group_label("COc1ccc(NC(=O)/C(CC2=Nc3ccc([N+](=O)[O-])cc3NC2O)=N\\NC(=O)C[N+](C)(C)C)c(OC)c1 (stereo not given)")
"no"
>>> group_label("O=C1Nc2ccccc2/C1=N/NC(=S)Nc1cccc(Cl)c1")
"no"
>>> group_label("O=C1C(/C=C/c2ccc(Cl)cc2)=NNC2N1N=C1NC(=O)C3(NN12)c1ccccc1-c1ccccc13 (stereo not given)")
"no"
>>> group_label("CCc1cc(=O)n(/C(C)=C/c2ccccc2)n1C")
"no"
>>> group_label("COc1ccc2nc(-c3ccc(OC(=O)N(C)C)cc3)cn2c1")
"no"
>>> group_label("CC(=O)O[C@@H]1C[C@@]2(C)[C@@H]3CC=C4[C@@H](C[C@H](O)C(=O)C4(C)C)[C@]3(C)C(=O)C[C@]2(C)[C@H]1[C@@](C)(O)C(=O)/C=C/C(C)(C)OC(C)=O")
"yes"
>>> group_label("OC(c1ccccc1)(c1ccccc1)c1ccccn1")
"no"
>>> group_label("COc1ccc(C2=C(OC(C)=O)c3cccn3-c3ccc(Cl)cc3S2)cc1")
"no"
>>> group_label("C=C(Br)C/N=C/N(C)C")
"no"
>>> group_label("COc1ccc(/C(Cl)=C(\\C=O)c2ccc([N+](=O)[O-])cc2)cc1")
"no"
>>> group_label("CCOC(=O)NC(=O)c1cn(CCOC(=O)NCCCCCCNC(=O)OCCn2cc(C(=O)NC(=O)OCC)c(=O)[nH]c2=O)c(=O)[nH]c1=O")
"no"
>>> group_label("COc1cc2c(cc1OC)-c1cc3ccccc3c(=O)n1CCC2")
"no"

###

tested on: OVCAR-8; assay: NCI tumour cell line growth inhibition, 48 h
Active and inactive are the calls of the source. No stated cut-off is given here; in the data, active = GI50 up to about 1.1 µM and inactive = higher. Positions of bridges follow the written chain, without caps; N, C: chain ends. Where a SMILES comes first, the peptide text is derived from it. Non-standard residues stand in square brackets, D forms with d. Residues, ends and D or L forms follow the SMILES beside them. [ ]: non-standard residue; d: D form. The star is where a group is joined. *: point of attachment. Octanoyl = CCCCCCCC(=O)*; PhAc = O=C(Cc1ccccc1)*; Aib = CC(C)(N)C(=O)O; tBu = CC(C)(C)*
Metric Name: GI50

>>> measured_result("CCc1cc(=O)n(/C(C)=C/c2ccccc2)n1C")
"> 100 µM (inactive)"
>>> measured_result("CCCCCC/C=C1\\CCC(CN2CCOCC2)C1=O (centres undefined)")
"16.8 µM (inactive)"
>>> measured_result("CCCCCCCC(=O)NC(C)(C)C(=O)NC(COC(C)(C)C)C(=O)NC(CC(C)C)C(=O)NC(C)(C)C(=O)NC(COC(C)(C)C)C(=O)NC(COC(C)(C)C)C(=O)NC(CC(C)C)C(=O)NC(C)(C)C(=O)NC(COC(C)(C)C)C(=O)NC(C(=O)NC(CC(C)C)C(=O)OC)C(C)CC (centres undefined) (Octanoyl-[Aib]S(tBu)L[Aib]S(tBu)S(tBu)L[Aib]S(tBu)IL-OMe; configuration not given here)")
"8.65 µM (inactive)"
>>> measured_result("CN1CCc2c1nc(-c1ccc(Cl)cc1)c1c2N(C)CC1")
"25.5 µM (inactive)"
>>> measured_result("Oc1ccc(-c2nc(-c3ccc4ccccc4n3)c(-c3ccc(F)cc3)[nH]2)cc1")
"12.5 µM (inactive)"
>>> measured_result("O=S1(=O)c2ccccc2NC(=S)N1c1ccccc1")
"34.6 µM (inactive)"
>>> measured_result("O=C(Cc1ccccc1)N[C@@H]1COC(=O)[C@@H]2CCCN2C(=O)[C@@H]2CCCN2C1=O (PhAc-[dS]-Pro-Pro; ester 1-C)")
"> 100 µM (inactive)"
>>> measured_result("COc1cc(/C=C2/SC(c3ccccc3)N(c3ccccc3)C2=O)cc(OC)c1OC (centres undefined)")
"76.4 µM (inactive)"
>>> measured_result("O=C1C=CC(=O)[C@H]2C3C=CC(C4C3C3(Cl)C(Cl)=C(Cl)[C@]4(Cl)C3(Cl)Cl)[C@@H]12 (some centres undefined)")
"8.47 µM (inactive)"
